Examples of compounds with documented EC50 follow.
Biological target: wild-type human androgen receptor (Homo sapiens)
Sequence (P10275 whole entry): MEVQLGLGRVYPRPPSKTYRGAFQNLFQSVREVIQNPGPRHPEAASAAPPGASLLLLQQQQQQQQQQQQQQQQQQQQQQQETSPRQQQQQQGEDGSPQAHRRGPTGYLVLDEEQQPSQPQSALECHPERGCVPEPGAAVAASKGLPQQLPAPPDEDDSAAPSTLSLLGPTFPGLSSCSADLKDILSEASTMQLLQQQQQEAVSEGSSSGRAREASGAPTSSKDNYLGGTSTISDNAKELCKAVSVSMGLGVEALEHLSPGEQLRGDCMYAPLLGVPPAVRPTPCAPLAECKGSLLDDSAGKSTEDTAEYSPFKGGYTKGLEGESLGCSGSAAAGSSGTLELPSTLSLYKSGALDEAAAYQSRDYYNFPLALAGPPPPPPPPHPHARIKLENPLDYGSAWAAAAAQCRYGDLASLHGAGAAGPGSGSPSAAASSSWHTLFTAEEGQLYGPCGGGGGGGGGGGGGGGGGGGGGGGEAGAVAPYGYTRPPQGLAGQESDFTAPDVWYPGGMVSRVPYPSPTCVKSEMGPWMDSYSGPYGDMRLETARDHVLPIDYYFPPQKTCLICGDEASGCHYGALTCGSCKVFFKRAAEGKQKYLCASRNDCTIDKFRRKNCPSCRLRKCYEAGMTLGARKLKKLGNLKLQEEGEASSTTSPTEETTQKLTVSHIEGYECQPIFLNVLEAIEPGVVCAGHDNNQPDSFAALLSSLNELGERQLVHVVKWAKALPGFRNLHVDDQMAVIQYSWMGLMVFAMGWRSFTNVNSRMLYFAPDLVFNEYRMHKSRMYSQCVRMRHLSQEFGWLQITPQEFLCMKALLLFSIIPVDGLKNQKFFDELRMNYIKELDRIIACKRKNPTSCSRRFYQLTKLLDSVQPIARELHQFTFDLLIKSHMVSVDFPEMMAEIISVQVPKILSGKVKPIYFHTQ
Experiment: Cell-based transactivation assay for wild-type human androgen receptor (PC-3 cells, MMTV-luciferase reporter)
readout-name: EC50

# compound, recorded-value
rows = [
    ("Cc1nc(C(F)(F)F)ccc1CN1C(=S)N(c2ccc(C#N)c(C(F)(F)F)c2)C(=O)C1(C)C [Example 13]", "> 10 µM"),
    ("COc1ccc(CN2C(=S)N(c3ccc(C#N)c(C(F)(F)F)c3)C(=O)C2(C)C)cc1 [Comparative data^4]", "6.81 µM"),
    ("CC1(C)C(=O)N(c2ccc(C#N)c(C(F)(F)F)c2)C(=S)N1CCCCO [reference compound]", "0.00813 µM"),
    ("CC1(C)C(=O)N(c2ccc(C#N)c(C(F)(F)F)c2)C(=S)N1Cc1cnc(-n2ccnc2)nc1 [Example 17]", "> 10 µM"),
    ("Cc1nccn1-c1ccc(CN2C(=S)N(c3ccc(C#N)c(C(F)(F)F)c3)C(=O)C2(C)C)cn1 [Example 15]", "> 10 µM"),
    ("CC(C)(O)COc1ccc(CN2C(=S)N(c3ccc(C#N)c(C(F)(F)F)c3)C(=O)C2(C)C)cn1 [Example 10]", "> 10 µM"),
    ("CC1(C)C(=O)N(c2ccc(C#N)c(C(F)(F)F)c2)C(=S)N1Cc1ccc(-n2ccnc2)nc1 [Example 1]", "> 10 µM"),
    ("CC1(C)C(=O)N(c2ccc(C#N)c(C(F)(F)F)c2)C(=S)N1Cc1ccc(-n2cnc(CO)c2)nc1 [Example 34]", "> 10 µM"),
    ("CC1(C)C(=O)N(c2ccc(C#N)c(C(F)(F)F)c2)C(=S)N1Cc1ccc(-n2cnc(C(F)(F)F)n2)nc1 [Example 33]", "> 10 µM"),
    ("CN=S1(=O)CCN(c2ccc(CN3C(=S)N(c4ccc(C#N)c(C(F)(F)F)c4)C(=O)C3(C)C)cn2)CC1 [Example 22]", "> 10 µM"),
    ("Cc1nnnn1-c1ccc(CN2C(=S)N(c3ccc(C#N)c(C(F)(F)F)c3)C(=O)C2(C)C)cn1 [Example 38]", "> 10 µM"),
    ("CC1(C)C(=O)N(c2ccc(C#N)c(C(F)(F)F)c2)C(=S)N1Cc1ccc(OCC(F)(F)CO)nc1 [Example 28]", "> 10 µM"),
    ("Cn1cc(-c2ccc(CN3C(=S)N(c4ccc(C#N)c(C(F)(F)F)c4)C(=O)C3(C)C)cn2)cn1 [Example 18]", "9.57 µM"),
]

* * *

Molecular target: human androgen receptor W741L mutant (Homo sapiens, UniProt P10275, W742L)
Sequence (P10275 whole entry W742L): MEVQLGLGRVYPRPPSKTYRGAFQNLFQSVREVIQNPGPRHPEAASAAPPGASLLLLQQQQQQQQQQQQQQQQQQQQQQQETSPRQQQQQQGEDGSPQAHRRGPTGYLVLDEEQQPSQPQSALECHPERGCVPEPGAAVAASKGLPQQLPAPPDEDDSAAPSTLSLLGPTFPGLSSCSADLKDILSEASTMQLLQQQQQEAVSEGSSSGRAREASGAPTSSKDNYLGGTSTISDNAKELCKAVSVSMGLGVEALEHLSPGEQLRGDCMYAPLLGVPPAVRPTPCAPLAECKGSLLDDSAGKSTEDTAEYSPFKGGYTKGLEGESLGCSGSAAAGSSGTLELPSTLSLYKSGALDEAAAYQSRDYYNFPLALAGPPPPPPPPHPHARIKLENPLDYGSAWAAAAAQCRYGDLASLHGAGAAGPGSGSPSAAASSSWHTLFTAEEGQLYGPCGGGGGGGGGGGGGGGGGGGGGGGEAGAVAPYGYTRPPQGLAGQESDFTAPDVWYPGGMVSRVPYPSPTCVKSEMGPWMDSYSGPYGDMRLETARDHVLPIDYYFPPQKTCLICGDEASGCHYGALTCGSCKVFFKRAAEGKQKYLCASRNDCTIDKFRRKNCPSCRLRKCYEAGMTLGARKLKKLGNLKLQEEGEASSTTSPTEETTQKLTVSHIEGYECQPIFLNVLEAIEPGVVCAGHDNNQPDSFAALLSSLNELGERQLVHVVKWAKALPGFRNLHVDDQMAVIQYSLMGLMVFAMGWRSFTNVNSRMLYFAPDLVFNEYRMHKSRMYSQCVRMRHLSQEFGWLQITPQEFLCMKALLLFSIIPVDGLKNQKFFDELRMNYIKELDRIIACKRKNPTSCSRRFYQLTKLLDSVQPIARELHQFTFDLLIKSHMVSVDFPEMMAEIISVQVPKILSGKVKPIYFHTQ
Experiment: Cell-based transactivation assay for human androgen receptor mutant W741L
Examples of molecules with documented log10 of IC50 follow.
readout-name: log10 of IC50 (log10 of the value in nM)

# molecule, recorded-value
data = [
    ("CC1(C)C(=O)N(c2ccc(C#N)c(C(F)(F)F)c2)C(=S)N1Cc1ccc(C(F)(F)F)nc1 [Example 2]", 1.94),
    ("CC(C)(O)COc1ccc(CN2C(=S)N(c3ccc(C#N)c(C(F)(F)F)c3)C(=O)C2(C)C)cn1 [Example 10]", 2.45),
    ("CC1(C)C(=O)N(c2ccc(C#N)c(C(F)(F)F)c2)C(=S)N1Cc1ccccc1 [Comparative data^4]", 2.22),
    ("CC1(C)C(=O)N(c2ccc(C#N)c(C(F)(F)F)c2)C(=S)N1Cc1cnc(-n2ccnc2)nc1 [Example 17]", 1.31),
    ("Cc1nnnn1-c1ccc(CN2C(=S)N(c3ccc(C#N)c(C(F)(F)F)c3)C(=O)C2(C)C)cn1 [Example 38]", 2.56),
    ("CC1(C)CC(=O)N(c2ccc(CN3C(=S)N(c4ccc(C#N)c(C(F)(F)F)c4)C(=O)C3(C)C)cn2)C1 [Example 16]", 1.89),
    ("CC1(C)C(=O)N(c2ccc(C#N)c(C(F)(F)F)c2)C(=S)N1Cc1ccc(OC2CCOCC2)nc1 [Example 5]", 1.70),
    ("CC1CN(c2ccc(CN3C(=S)N(c4ccc(C#N)c(C(F)(F)F)c4)C(=O)C3(C)C)cn2)CCO1 (stereo not drawn) [Example 7]", 1.69),
    ("Cc1nc(C(F)(F)F)ccc1CN1C(=S)N(c2ccc(C#N)c(C(F)(F)F)c2)C(=O)C1(C)C [Example 13]", 1.97),
    ("CC1(C)C(=O)N(c2ccc(C#N)c(C(F)(F)F)c2)C(=S)N1Cc1ccc(OCCN2CCOCC2)nc1 [Example 3]", 2.07),
    ("Cc1nc(OCC(C)(C)O)ccc1CN1C(=S)N(c2ccc(C#N)c(C(F)(F)F)c2)C(=O)C1(C)C [Example 37]", 2.38),
    ("CC1(C)C(=O)N(c2ccc(C#N)c(C(F)(F)F)c2)C(=S)N1Cc1ccc(-n2cnc(CO)c2)nc1 [Example 34]", 2.41),
    ("Cc1cn(-c2ccc(CN3C(=S)N(c4ccc(C#N)c(C(F)(F)F)c4)C(=O)C3(C)C)cn2)cn1 [Example 19]", 2.30),
    ("Cc1nc(Cl)cn1-c1ccc(CN2C(=S)N(c3ccc(C#N)c(C(F)(F)F)c3)C(=O)C2(C)C)cn1 [Example 21]", 2.47),
    ("COc1ccc(CN2C(=S)N(c3ccc(C#N)c(C(F)(F)F)c3)C(=O)C2(C)C)cc1 [Comparative data^4]", 2.58),
    ("CC1(C)C(=O)N(c2ccc(C#N)c(C(F)(F)F)c2)C(=S)N1Cc1ccc(-n2ccnc2)nc1 [Example 1]", 2.24),
    ("CC1(C)C(=O)N(c2ccc(C#N)c(C(F)(F)F)c2)C(=S)N1Cc1ccc(N2CCOCC2)nc1 [Example 4]", 1.95),
    ("CN1C(=S)N(c2ccc(C#N)c(C(F)(F)F)c2)C(=O)C1(C)C [reference compound]", 2.20),
    ("CC1(C)C(=O)N(c2ccc(C#N)c(C(F)(F)F)c2)C(=S)N1CCCCO [reference compound]", 1.95),
    ("COc1ccc(CN2C(=S)N(c3ccc(C#N)c(C(F)(F)F)c3)C(=O)C2(C)C)cn1 [Example 8]", 1.69),
    ("CN=S1(=O)CCN(c2ccc(CN3C(=S)N(c4ccc(C#N)c(C(F)(F)F)c4)C(=O)C3(C)C)cn2)CC1 [Example 22]", 1.76),
    ("CC1(C)C(=O)N(c2ccc(C#N)c(C(F)(F)F)c2)C(=S)N1Cc1ccc(-c2cccs2)nc1 [Example 24]", 2.31),
    ("Cn1nccc1-c1ccc(CN2C(=S)N(c3ccc(C#N)c(C(F)(F)F)c3)C(=O)C2(C)C)cn1 [Example 20]", 2.37),
    ("CC1(C)C(=O)N(c2ccc(C#N)c(C(F)(F)F)c2)C(=S)N1Cc1ccc(OCCN2CCNC2=O)nc1 [Example 35]", 1.65),
    ("CC1(C)C(=O)N(c2ccc(C#N)c(C(F)(F)F)c2)C(=S)N1Cc1ccc(-n2cnc(C(F)(F)F)c2)nc1 [Example 23]", 1.92),
]

* * *

Target: wild-type human androgen receptor (Homo sapiens)
Test: Cell-based transactivation assay for wild-type human androgen receptor (PC-3 cells, MMTV-luciferase reporter)
pEC50: −log10 of the molar value.

# molecule, measured-target, pEC50
measured = [
    ("CC1(C)C(=O)N(c2ccc(C#N)c(C(F)(F)F)c2)C(=S)N1Cc1ccc(OC2CCOCC2)nc1", "wild-type human androgen receptor (Homo sapiens)", "< 5.00"),
    ("CC1(C)CC(=O)N(c2ccc(CN3C(=S)N(c4ccc(C#N)c(C(F)(F)F)c4)C(=O)C3(C)C)cn2)C1", "wild-type human androgen receptor (Homo sapiens)", "< 5.00"),
    ("CC1(C)C(=O)N(c2ccc(C#N)c(C(F)(F)F)c2)C(=S)N1Cc1ccc(N2CCS(=N)(=O)CC2)nc1", "wild-type human androgen receptor (Homo sapiens)", "< 5.00"),
    ("CC1(C)C(=O)N(c2ccc(C#N)c(C(F)(F)F)c2)C(=S)N1Cc1ccc(C(F)(F)F)nc1", "wild-type human androgen receptor (Homo sapiens)", 5.27),
    ("CC1(C)C(=O)N(c2ccc(C#N)c(C(F)(F)F)c2)C(=S)N1Cc1ccc(N2CCS(=O)(=NC#N)CC2)nc1", "wild-type human androgen receptor (Homo sapiens)", "< 5.00"),
    ("Cc1cn(-c2ccc(CN3C(=S)N(c4ccc(C#N)c(C(F)(F)F)c4)C(=O)C3(C)C)cn2)cn1", "wild-type human androgen receptor (Homo sapiens)", "< 5.00"),
    ("CC1(C)C(=O)N(c2ccc(C#N)c(C(F)(F)F)c2)C(=S)N1Cc1ccc(OCCN2CCOCC2)nc1", "wild-type human androgen receptor (Homo sapiens)", "< 5.00"),
    ("CC1(C)C(=O)N(c2ccc(C#N)c(C(F)(F)F)c2)C(=S)N1Cc1ccc(N2CCOCC2)nc1", "wild-type human androgen receptor (Homo sapiens)", "< 5.00"),
    ("CC1(C)C(=O)N(c2ccc(C#N)c(C(F)(F)F)c2)C(=S)N1Cc1cnc(N2CCOCC2)nc1N", "wild-type human androgen receptor (Homo sapiens)", 5.30),
    ("CC1(C)C(=O)N(c2ccc(C#N)c(C(F)(F)F)c2)C(=S)N1Cc1ccc(-n2cnc(C(F)(F)F)c2)nc1", "wild-type human androgen receptor (Homo sapiens)", "< 5.00"),
    ("CC1(C)C(=O)N(c2ccc(C#N)c(C(F)(F)F)c2)C(=S)N1Cc1ccc(N2CCC(CO)CC2)nc1", "wild-type human androgen receptor (Homo sapiens)", 5.22),
    ("Cc1ccnn1-c1ccc(CN2C(=S)N(c3ccc(C#N)c(C(F)(F)F)c3)C(=O)C2(C)C)cn1", "wild-type human androgen receptor (Homo sapiens)", "< 5.00"),
    ("Cc1nc(Cl)cn1-c1ccc(CN2C(=S)N(c3ccc(C#N)c(C(F)(F)F)c3)C(=O)C2(C)C)cn1", "wild-type human androgen receptor (Homo sapiens)", "< 5.00"),
    ("CC1(C)C(=O)N(c2ccc(C#N)c(C(F)(F)F)c2)C(=S)N1Cc1ccc(-n2cnnn2)nc1", "wild-type human androgen receptor (Homo sapiens)", "< 5.00"),
    ("Cc1nc(OCC(C)(C)O)ccc1CN1C(=S)N(c2ccc(C#N)c(C(F)(F)F)c2)C(=O)C1(C)C", "wild-type human androgen receptor (Homo sapiens)", "< 5.00"),
    ("Cn1nccc1-c1ccc(CN2C(=S)N(c3ccc(C#N)c(C(F)(F)F)c3)C(=O)C2(C)C)cn1", "wild-type human androgen receptor (Homo sapiens)", "< 5.00"),
    ("CC1(C)C(=O)N(c2ccc(C#N)c(C(F)(F)F)c2)C(=S)N1Cc1ccc(OCCN2CCNC2=O)nc1", "wild-type human androgen receptor (Homo sapiens)", "< 5.00"),
    ("CC1(C)C(=O)N(c2ccc(C#N)c(C(F)(F)F)c2)C(=S)N1Cc1ccc(F)cc1", "wild-type human androgen receptor (Homo sapiens)", 8.75),
    ("CC1CN(c2ccc(CN3C(=S)N(c4ccc(C#N)c(C(F)(F)F)c4)C(=O)C3(C)C)cn2)CCO1 (stereo not drawn)", "wild-type human androgen receptor (Homo sapiens)", "< 5.00"),
    ("COc1ccc(CN2C(=S)N(c3ccc(C#N)c(C(F)(F)F)c3)C(=O)C2(C)C)cn1", "wild-type human androgen receptor (Homo sapiens)", 5.05),
    ("CC1(C)C(=O)N(c2ccc(C#N)c(C(F)(F)F)c2)C(=S)N1Cc1ccc(N2CCNC2=O)nc1", "wild-type human androgen receptor (Homo sapiens)", "< 5.00"),
    ("COCCOc1ccc(CN2C(=S)N(c3ccc(C#N)c(C(F)(F)F)c3)C(=O)C2(C)C)cn1", "wild-type human androgen receptor (Homo sapiens)", "< 5.00"),
    ("CC1(C)C(=O)N(c2ccc(C#N)c(C(F)(F)F)c2)C(=S)N1Cc1ccc(-n2nccn2)nc1", "wild-type human androgen receptor (Homo sapiens)", "< 5.00"),
    ("CC1(C)C(=O)N(c2ccc(C#N)c(C(F)(F)F)c2)C(=S)N1Cc1ccc(-n2cnc(Cl)c2Cl)nc1", "wild-type human androgen receptor (Homo sapiens)", "< 5.00"),
    ("CC1(C)C(=O)N(c2ccc(C#N)c(C(F)(F)F)c2)C(=S)N1Cc1ccc(N=[S@](C)(=O)c2ccccc2)nc1", "wild-type human androgen receptor (Homo sapiens)", "< 5.00"),
    ("CN1CCCN(c2ccc(CN3C(=S)N(c4ccc(C#N)c(C(F)(F)F)c4)C(=O)C3(C)C)cn2)CC1", "wild-type human androgen receptor (Homo sapiens)", "< 5.00"),
    ("CC1(C)C(=O)N(c2ccc(C#N)c(C(F)(F)F)c2)C(=S)N1Cc1ccc(-n2ccnn2)nc1", "wild-type human androgen receptor (Homo sapiens)", "< 5.00"),
    ("CN1C(=S)N(c2ccc(C#N)c(C(F)(F)F)c2)C(=O)C1(C)C [reference compound]", "wild-type human androgen receptor (Homo sapiens)", 8.10),
    ("CC1(C)C(=O)N(c2ccc(C#N)c(C(F)(F)F)c2)C(=S)N1Cc1ccc(-c2cccs2)nc1", "wild-type human androgen receptor (Homo sapiens)", "< 5.00"),
    ("CC1(C)C(=O)N(c2ccc(C#N)c(C(F)(F)F)c2)C(=S)N1Cc1ccccc1", "wild-type human androgen receptor (Homo sapiens)", 7.33),
]

Origin of values: patent US20120251551A1
